meta.source: patent US8329695B2

# assayOverview: Solubility in aqueous media
# Assay type: physicochemical
# statedConditions: aqueous buffer, thermodynamic from solid; McIlvaine buffer pH 7.0; pH of the saturated solution 7.2
property: solubility

Task item: Given `CC[C@@H]1C(=O)N(C)c2cnc(Nc3ccc(C(=O)N[C@H]4CC[C@H](N5CCN(CC6CC6)CC5)CC4)cc3OC)nc2N1C(C)C` , respond with its solubility.
Reply: > 10000 µg/mL

###

# assayOverview: Solubility in aqueous media
# Assay type: physicochemical
# statedConditions: phosphate buffer, aqueous buffer, thermodynamic from solid; Phosphate pH 7.0; pH of the saturated solution 7.3
property: solubility
Write the quantity with the unit trailing the number.

Task item: Provide only the value of recorded solubility for `CC[C@@H]1C(=O)N(C)c2cnc(Nc3ccc(C(=O)N[C@H]4CC[C@H](N5CCN(CC6CC6)CC5)CC4)cc3OC)nc2N1C(C)C`
Reply: 10000 µg/mL

###

# assayOverview: Solubility in aqueous media
# Assay type: physicochemical
# statedConditions: aqueous buffer, thermodynamic from solid; McIlvaine buffer pH 3.0; pH of the saturated solution 3.6
property: solubility

Task item: Read off the recorded solubility for `CC[C@@H]1C(=O)N(C)c2cnc(Nc3ccc(C(=O)N[C@H]4CC[C@H](N5CCN(CC6CC6)CC5)CC4)cc3OC)nc2N1C(C)C`
Reply: > 10000 µg/mL

###

# assayOverview: Solubility in aqueous media
# Type: physicochemical
# statedConditions: aqueous buffer, thermodynamic from solid; McIlvaine buffer pH 5.0; pH of the saturated solution 5.5
# Description: Solubility in Aqueous Media
property: solubility

Task item: Annotate the compound CC[C@@H]1C(=O)N(C)c2cnc(Nc3ccc(C(=O)N[C@H]4CC[C@H](N5CCN(CC6CC6)CC5)CC4)cc3OC)nc2N1C(C)C [formula (I)] with its measured solubility.
Reply: > 10000 µg/mL
